Test: Urine concentration analysis / urinary recovery of Compound 1 in beagle dogs
Type: in vivo
Details: male, beagle, dog, urine, iv, 10 mg/kg, 10 mg/kg IV, Dog 6001, 24 hr, read-out: Cmpd 1 urine concentration
measuredQuantity: concentration at 24 h

Problem: Which concentration at 24 h value is on record for CN[C@@H]1[C@@H](O)[C@@H](O[C@@H]2[C@@H](O)[C@H](O[C@H]3OC(CNCCO)=CC[C@H]3N)[C@@H](N)C[C@H]2NC(=O)[C@@H](O)CCN)OC[C@]1(C)O ?
Solution: 24000 ng/mL

* * *

Assay: First-in-human phase 1 study: plasma pharmacokinetics of Compound 1
Assay type: in vivo
Details: both sexes, human, plasma, intravenous, 1 mg/kg, human plasma, single dose, 24 hours, Cohort 1 a (1 mg/kg), compartmental (2) analysis, ± SE
measuredQuantity: Cmax (ng/mL)
Numeric answer only, unit ng/mL assumed.

Problem: For the molecule shown here, CN[C@@H]1[C@@H](O)[C@@H](O[C@@H]2[C@@H](O)[C@H](O[C@H]3OC(CNCCO)=CC[C@H]3N)[C@@H](N)C[C@H]2NC(=O)[C@@H](O)CCN)OC[C@]1(C)O [Compound 1] , give the reported Cmax.
Solution: 8000
